These measurements were taken from the RNAGym collection of RNA variant scans (doi:10.1093/molbev/msab373).

Listed below: reverse-splicing fitness values for each entry.
B1: Azoarcus group I ribozyme (parent)
chain: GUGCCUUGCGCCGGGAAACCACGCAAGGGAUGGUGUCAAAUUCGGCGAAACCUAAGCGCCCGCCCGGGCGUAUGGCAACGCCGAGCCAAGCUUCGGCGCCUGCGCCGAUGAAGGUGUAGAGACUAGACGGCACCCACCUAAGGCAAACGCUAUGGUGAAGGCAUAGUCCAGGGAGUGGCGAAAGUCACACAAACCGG

# Variants of: B1
# protocolSummary: reverse-splicing fitness (ratio to wild type); higher = more active; in vitro selection; Mg2+ level not given
# print the numeric value only

# residueChange, assayResult
rows = [
    ("C82A A120U C169U", 0.00613),
    ("C82U A120U A145C C150A C169U U176G", 0.00151),
    ("C82G A120U C169A U176A", 0.00247),
]

// returns reported reverse-splicing fitness for input C82A A111U A120C C150G U176A
0.00671

Could you share which reverse-splicing fitness value was measured for C82U A111U A120U A145U C150A C169U ?
0.00279

Could you share which reverse-splicing fitness value was measured for A111C A120G A145U C150G U176A ?
0.00983
